target: Human immunodeficiency virus type 1 reverse transcriptase (Human immunodeficiency virus 1)
RESULT_TYPE: pKd
The meaning of pKd here: minus log10 of the concentration in molar units.

Recorded pKd for `Cc1cc(Cc2ccc(Cl)c(Oc3cc(F)cc(C#N)c3)c2F)n[nH]c1=O` , please? 8.08

---

biological target: UniProtKB P05177
Sequence (P05177 whole entry): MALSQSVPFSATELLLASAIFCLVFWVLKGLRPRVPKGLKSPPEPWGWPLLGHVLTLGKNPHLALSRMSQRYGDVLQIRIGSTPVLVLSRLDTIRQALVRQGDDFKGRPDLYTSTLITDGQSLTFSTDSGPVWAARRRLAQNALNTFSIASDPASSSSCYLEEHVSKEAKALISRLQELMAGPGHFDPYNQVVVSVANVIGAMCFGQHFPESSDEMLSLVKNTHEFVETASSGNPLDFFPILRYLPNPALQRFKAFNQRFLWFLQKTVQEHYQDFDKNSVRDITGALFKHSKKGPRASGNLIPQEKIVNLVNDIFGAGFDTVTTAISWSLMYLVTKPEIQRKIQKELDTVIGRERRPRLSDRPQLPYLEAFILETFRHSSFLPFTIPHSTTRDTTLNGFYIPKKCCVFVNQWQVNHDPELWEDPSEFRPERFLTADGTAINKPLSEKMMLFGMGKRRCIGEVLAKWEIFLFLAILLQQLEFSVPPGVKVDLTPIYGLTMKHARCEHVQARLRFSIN
pIC50: −log10 of the molar value.
RESULT_TYPE: pIC50

Short answer please: pIC50, UniProtKB P05177, entry `Cc1cc(Cc2ccc(Cl)c(Oc3cc(F)cc(C#N)c3)c2F)n[nH]c1=O` < 4.30

---

target: Human immunodeficiency virus type 1 reverse transcriptase (Human immunodeficiency virus 1, UniProt Q72547, Y181C); assay: Inhibition of HIV1 reverse transcriptase Y181C mutant by scintillation counting assay
RESULT_TYPE: IC50 (nM)
Give your result in nM as a bare value.

Recorded IC50 for `O=c1ccc(Cc2ccc(Cl)c(Oc3ccccc3)c2)n[nH]1` , please? 5490

Recorded IC50 for `O=C(c1ccc(Cl)cc1)c1cc(Cc2ccc(=O)[nH]n2)cc2ccoc12` , please? 360

Recorded IC50 for `Cc1cc(Cc2ccc(Cl)c(Oc3ccccc3)c2F)n[nH]c1=O` , please? 210

Recorded IC50 for `Cc1cc(Cc2ccc(Cl)c(Oc3ccccc3)c2)n[nH]c1=O` , please? 2130

Recorded IC50 for `O=c1ccc(Cc2ccc(Cl)c(Oc3ccccc3)c2F)n[nH]1` , please? 500

---

biological target: Human immunodeficiency virus type 1 reverse transcriptase (Human immunodeficiency virus 1, UniProt Q72547, K103N); assay: Inhibition of HIV1 reverse transcriptase K103N mutant by scintillation counting assay
pIC50: −log10 of the molar value.
Lab note: anything with pIC50 at or over 6 counts as 1 (yes); the rest go in 0 (no).

Example cases with answers are listed next.
Decide: is the reported value of pIC50 for `O=C(c1ccc(Cl)cc1)c1cc(Cc2ccc(=O)[nH]n2)cc2ccoc12` equal to or greater than 6? 1 (yes)

Decide: is the reported value of pIC50 for `O=c1ccc(Cc2ccc(Cl)c(Oc3ccccc3)c2)n[nH]1` equal to or greater than 6? 0 (no)

Decide: is the reported value of pIC50 for `O=c1ccc(Cc2ccc(Cl)c(Oc3ccccc3)c2F)n[nH]1` equal to or greater than 6? 1 (yes)

Next:
Decide: is the reported value of pIC50 for `Cc1cc(Cc2ccc(Cl)c(Oc3ccccc3)c2F)n[nH]c1=O` equal to or greater than 6? 1 (yes)

---

experiment: Bioavailability in rat at 2.5 mg/kg, iv; format: ADME, organism-based; details: in vivo
RESULT_TYPE: bioavailability (%)
Give your result in % as a bare value.

Recorded bioavailability for `Cc1cc(Cc2ccc(Cl)c(Oc3cc(F)cc(C#N)c3)c2F)n[nH]c1=O` , please? 61

---

molecular target: Cytochrome P450 2C19 (Homo sapiens, UniProt P33261)
Sequence (P33261 whole entry): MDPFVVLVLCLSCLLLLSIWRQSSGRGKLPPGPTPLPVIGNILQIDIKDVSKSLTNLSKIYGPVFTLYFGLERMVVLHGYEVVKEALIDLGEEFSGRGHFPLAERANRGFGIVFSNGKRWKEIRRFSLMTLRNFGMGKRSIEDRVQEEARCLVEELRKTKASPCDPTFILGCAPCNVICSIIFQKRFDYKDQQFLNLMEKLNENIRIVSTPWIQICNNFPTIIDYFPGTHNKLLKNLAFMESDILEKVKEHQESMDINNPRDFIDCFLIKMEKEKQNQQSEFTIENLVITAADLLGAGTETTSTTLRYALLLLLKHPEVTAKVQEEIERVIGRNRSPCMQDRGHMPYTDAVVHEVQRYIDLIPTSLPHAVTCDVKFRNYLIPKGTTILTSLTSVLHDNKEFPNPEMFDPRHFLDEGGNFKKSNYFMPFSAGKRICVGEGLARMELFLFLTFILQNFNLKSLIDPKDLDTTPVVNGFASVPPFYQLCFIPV
RESULT_TYPE: IC50 (µM)
Give your result in µM as a bare value.

Recorded IC50 for `Cc1cc(Cc2ccc(Cl)c(Oc3cc(F)cc(C#N)c3)c2F)n[nH]c1=O` , please? 21

---

target: Human immunodeficiency virus type 1 reverse transcriptase (Human immunodeficiency virus 1, UniProt Q72547, K103N); test: Inhibition of HIV1 reverse transcriptase K103N mutant by scintillation counting assay
RESULT_TYPE: EC50 (nM)
Give your result in nM as a bare value.

Recorded EC50 for `Cc1cc(Cc2ccc(Cl)c(Oc3cc(F)cc(C#N)c3)c2F)n[nH]c1=O` , please? 2

Next item in the queue.
Recorded EC50 for `Cc1cc(Cc2ccc(Cl)c(Oc3cc(C#N)cc(C#N)c3)c2F)n[nH]c1=O` , please? 2
